Recorded values, source PubChem BioAssay (NCI).

In this section, each of the compounds is paired with its reported growth.
Test system: UACC-257 melanoma
Assay: NCI-60 one-dose screen, 48 h (100 = growth as untreated, 0 = no growth, -100 = all killed)
Settings: 10 µM unless noted
This is part of a sample that, as a whole, favours compounds with a hit. Of some 83,000 tested, about 20% had one in any assay.
Provide only the numeric value, understood in %.

*Q* Please look up its growth: O=C(O)c1cc(N=Nc2ccc(-c3ccc(N=Nc4c(S(=O)(=O)O)cc5ccc(Nc6ccccc6)cc5c4O)cc3)cc2)ccc1O
*A* 107

*Q* Please look up its growth: COc1ccccc1N1CCN(CCCOc2ccc(C(=O)/C=C3/C(=O)Nc4ccccc43)cc2)CC1
*A* 90.2

*Q* Please look up its growth: S=c1ssnc1-c1cc2ccccc2o1
*A* 94.5

*Q* Please look up its growth: C#Cc1ccccc1NC(=O)c1sc2nc3c(cc2c1N)CCCCC3
*A* 110

*Q* Please look up its growth: O=c1[nH]c(-c2cccc(F)c2)cc2cc(F)ccc12
*A* 55.3

*Q* Please look up its growth: CCOC(=O)c1c(C)nc2c(c1N)/C(=C/c1ccccn1)C(=O)N2Cc1ccccc1
*A* 35.1

*Q* Please look up its growth: COc1ccc(Nc2nc(SCC(C)C)nc(-c3ccc(F)cc3)c2C#N)cc1
*A* 73

*Q* Please look up its growth: COc1ccc(C(=O)c2cc(OC)c(OC)c(OC)c2)cc1OC(=O)CCl
*A* 48.9

*Q* Please look up its growth: CCCCCOC(=O)c1ccccc1O
*A* 94.3

*Q* Please look up its growth: CNC(=O)c1cc(Oc2ccc3c(c2)sc2nc(-c4ccc(NC(C)=O)cc4)cn23)ccn1
*A* 70.9

* * *

Tested on: ACHN renal
Test: NCI-60 one-dose screen, 48 h
Details: 10 µM unless noted
Compounds without any hit were thinned out: in the full panel of roughly 83,000, 20% have a hit. Active and inactive are the calls of the source. How the source made its calls: active means growth percent below 10; inactive means the rest.
Reply using exactly one outcome from active, inactive

CC(C)(C)c1ccc(O)c(Cc2cc(C(C)(C)C)ccc2O)c1
inactive
COc1ccc(-n2cc(-c3ccc(Cl)c(Cl)c3)[nH]c2=O)cc1OC
inactive
CNC(=O)c1cc(Oc2ccc3c(c2)sc2nc(-c4ccc(NC(C)=O)cc4)cn23)ccn1
inactive

*Q* Tell me the recorded outcome of this test for CCCCOc1nc2ccc(C)cc2cc1/C=C/C(=O)/C=C/c1ccc2c(c1)OCO2 .
*A* inactive

*Q* Tell me the recorded outcome of this test for COc1cc(C2=NN(C(C)=O)C(c3cccc(Nc4ccnc5cc(C(F)(F)F)ccc45)c3)C2)cc(OC)c1OC (centres undefined) .
*A* inactive

*Q* Tell me the recorded outcome of this test for O=C(Nc1cccc(-c2cccc(F)c2)c1)C1CCN(Cc2cccc3cccnc23)CC1 .
*A* inactive

* * *

Tested on: SNB-75 CNS
Assay: NCI-60 one-dose screen, 48 h
Conditions: 10 µM unless noted
The panel holds about 83,000 compounds, 20% with a hit somewhere; the sample as a whole holds those more often. Calls of active or inactive are those of the source. How the source made its calls: active means growth percent below 10; inactive means the rest.
Reply using exactly one outcome from label 1 for active, label 0 for inactive

Use these answered entries as a reference point.
CC(=O)OCC1SC(OC(C)=O)C(NC(=O)/C=C/CCl)C(OC(C)=O)C1OC(C)=O (centres undefined)
label 0
C[C@H]1[C@H](C)CC[C@]2(C(=O)OCCCC[P+](c3ccccc3)(c3ccccc3)c3ccccc3)CC[C@]3(C)C(=CC[C@@H]4[C@@]5(C)CC[C@H](OC(=O)C(Cl)Cl)C(C)(C)[C@@H]5CC[C@]43C)[C@H]12
label 1
N#CC(C#N)=C1NC(c2ccccc2)=C(c2ccccc2)C(c2ccccc2Cl)=C1C#N
label 0

*Q* Tell me the recorded outcome of this test for Cc1c(Cl)cccc1NC(=O)c1sc2nc3c(cc2c1N)CN(Cc1ccccc1)CC3 .
*A* label 0

* * *

Tested on: SK-MEL-28 melanoma
Experiment: NCI-60 one-dose screen, 48 h
Conditions: 10 µM unless noted
About 83,000 compounds went through this panel and 20% of them were active in at least one assay; those are over-represented in the sample as a whole. Calls of active or inactive are those of the source. The calls were made as follows: active = growth percent below 10; inactive = the rest.
Reply using exactly one outcome from active, inactive

Use these answered entries as a reference point.
C#C[C@@]1(O)[C@@H](CO)O[C@@H](n2cc(Cl)c3c(N)ccnc32)[C@@H]1O
inactive
N#Cc1c(-c2ccc(F)cc2)nc(N/N=C/c2c[nH]c3ccccc23)nc1N1CCOCC1
active
Cc1cnc(-c2ccc(-c3ccc(NC(=O)Nc4c(F)cc(F)cc4F)cc3F)c3c2C(=O)NC3)[nH]1
inactive
C=CCn1c(CN2CCN(c3cc4c(cc3F)c(=O)c(C(=O)O)cn4C3CC3)CC2)n[nH]c1=S
inactive
COc1ccc(C(=S)c2cc(OC)c(OC)c(OC)c2)cc1OC(=O)CCl
inactive

*Q* Tell me the recorded outcome of this test for COc1cc(NC(=O)COc2cc(C)nc3ccc(OC)cc23)cc(OC)c1 .
*A* inactive

*Q* Tell me the recorded outcome of this test for COc1cc(NCC(=O)Nc2cc(Nc3ccc(C)cc3)ncn2)c(Cl)c(OC)c1Cl .
*A* inactive

* * *

System: M14 melanoma
Assay: NCI-60 one-dose screen, 48 h (100 = growth as untreated, 0 = no growth, -100 = all killed)
Details: 10 µM unless noted
Compounds without any hit were thinned out: in the full panel of roughly 83,000, 20% have a hit.
Assay Metric: growth (%)
Provide only the numeric value, understood in %.

Recorded growth, per entry:
N#CCNc1ccc(C(=O)O)cc1
110
CC(C)(C)c1nn(-c2ccccc2)c2c1COCN2Cc1ccc(Cl)cc1
91.8
N#CC1C(c2ccc(Cl)cc2)=Nc2c(c(-c3ccccc3)nn2-c2ccccc2)C12C(=O)Nc1ccc(Cl)cc12 (stereo not drawn)
34.6
COc1ccc([C@H]2[C@@H](F)C(=O)N2c2cc(OC)c(OC)c(OC)c2)cc1F
1.91

*Q* Please look up its growth: C=C(C)[C@@H]1CC[C@]2(C(=O)NCCCO)CC[C@]3(C)[C@H](CC[C@@H]4[C@@]5(C)CCCNC(C)(C)[C@@H]5CC[C@]43C)[C@@H]12
*A* 33.7

*Q* Please look up its growth: CC1=C/C(=N\N=C2/C=C(C)CC(C)(C)C2)CC(C)(C)C1
*A* 103

*Q* Please look up its growth: COc1ccc(C2N(c3cc(OC)c(OC)c(OC)c3)C(=O)C2(F)F)cc1F (stereo not drawn)
*A* 24.2

*Q* Please look up its growth: CCN1CCN(c2ccc(NC(=O)Nc3nc4ccc(-c5ccccc5OC)cc4s3)cc2)CC1
*A* -70.1

*Q* Please look up its growth: Cc1c(Cl)cccc1NC(=O)c1sc2nc3c(cc2c1N)CCCCCC3
*A* 8.66

* * *

Tested on: NCI/ADR-RES ovarian
Test: NCI-60 one-dose screen, 48 h
Conditions: 10 µM unless noted
Compounds without any hit were thinned out: in the full panel of roughly 83,000, 20% have a hit. Active and inactive are the calls of the source. Rule for the calls: active = growth percent below 10; inactive = the rest.
Reply using exactly one outcome from 1.0 (active), 0.0 (inactive)

Use these answered entries as a reference point.
O=c1cc(/C=N\Nc2nc(-c3ccc(Cl)cc3Cl)cs2)c2cc(Cl)ccc2o1
0.0
C#C[C@@]1(O)[C@@H](CO)O[C@@H](n2ccc3c(N)ncnc32)[C@@H]1O
1.0
COc1ccc(C(=S)c2cc(OC)c(OC)c(OC)c2)cc1OC(=O)CCl
1.0
Cc1cnc(SCc2ccc(Cl)cc2Cl)nc1Nc1ccc(Cl)c(Cl)c1
0.0
COc1ccc2oc(=O)cc(-c3c(C#N)c(N)n4nc(N)c(C#N)c4c3C#N)c2c1
0.0
c1ccc2c3c([nH]c2c1)C(c1ccc(C2NCCc4c2[nH]c2ccccc42)cc1)NCC3 (configuration not stated)
0.0
COc1ccc(-c2cc(C(=O)N3N=C(c4ccc(N)cc4)CC3c3ccc(OC)cc3)c3cc(OC)ccc3n2)cc1 (configuration not stated)
1.0
Cc1cccc(C)c1NCc1nnc(-c2ccco2)o1
0.0
COc1ccc2[nH]c(-c3ccccc3)c(C=C(C#N)C#N)c2c1
1.0
O=C1NC(c2ccc(F)cc2)N=C2C(c3ccccc3)=NOC12 (configuration not stated)
0.0

*Q* Tell me the recorded outcome of this test for Cc1cccc2nc3c(n12)C(=O)C(=O)c1ccccc1-3 .
*A* 0.0

*Q* Tell me the recorded outcome of this test for CN(C)CSc1nc2ccccc2s1 .
*A* 0.0

*Q* Tell me the recorded outcome of this test for COc1ccc(NC(=O)c2sc3nc(C)c(C(C)=O)cc3c2N)cc1 .
*A* 0.0

*Q* Tell me the recorded outcome of this test for CC(C)CSc1nc(Nc2ccccc2)c(C#N)c(-c2ccc(F)cc2)n1 .
*A* 0.0

*Q* Tell me the recorded outcome of this test for C[C@H]1[C@H](C)CC[C@]2(C(=O)OCCOCCOCC[P+](c3ccccc3)(c3ccccc3)c3ccccc3)CC[C@]3(C)C(=CC[C@@H]4[C@@]5(C)CC[C@H](OC(=O)C(Cl)Cl)C(C)(C)[C@@H]5CC[C@]43C)[C@H]12 .
*A* 0.0
